system: SR; assay: NCI tumour cell line growth inhibition, 48 h
Active and inactive are the calls of the source. Rule as the data show it: active = GI50 up to about 1.1 µM and inactive = higher.
Collected GI50 values appear next to each entry.
Quantity Name: GI50

molecule=CN(C)c1ccc(Cc2cc3c(O)ccc(O)c3cc(Cc3ccc(N(C)C)cc3)c2=O)cc1 experimental_value="3.08 µM (inactive)"
molecule="Cc1cn(C2CC(CCCO)C(CO)O2)c(=O)[nH]c1=O (configuration not stated)" experimental_value="> 100 µM (inactive)"
molecule=Cc1c(C(=O)CSc2nc3cc([N+](=O)[O-])ccc3[nH]2)c(=O)n(-c2ccccc2)n1C experimental_value="> 100 µM (inactive)"
molecule=O=c1c2c3c(sc2nc2n1sc1nc4sc5c(c4c(=O)n12)CCCC5)CCCC3 experimental_value="25.8 µM (inactive)"
molecule="O=C(CC1C(=O)Nc2ccccc2S1(=O)=O)Nc1cccc(Cl)c1 (configuration not stated)" experimental_value="18.2 µM (inactive)"
molecule="CCOc1ccc2nc(NC(=O)C(=O)C(C#N)CC(C)(C)C=O)sc2c1 (configuration not stated)" experimental_value="21 µM (inactive)"
molecule=COc1ccc(-n2sc3ncc(C)cc3c2=O)cc1 experimental_value="35.4 µM (inactive)"
molecule=O=C1C=CC(=O)c2c1cc([N+](=O)[O-])c1ccoc21 experimental_value="5.37 µM (inactive)"
molecule="CC(C)C(CCOS(=O)(=O)O)CCC(C)[C@H]1[C@@H](O)C(O)C2[C@]3(O)C[C@@H](O)C4(O)C[C@@H](O)CC[C@]4(C)C3CC[C@@]21C (some centres not stated)" experimental_value="> 100 µM (inactive)"
molecule="CC(C)CCCC(C)[C@H]1CC[C@H]2N/C(=N/c3ccccc3)CCC[C@]12C (some centres not stated)" experimental_value="1.77 µM (inactive)"
molecule=COC(=O)/C=C/c1ccc2nncnc2c1.COC(=O)/C=C\c1ccc2nncnc2c1 experimental_value="56.9 µM (inactive)"
molecule="O=c1c2ncn(C3CC(O)C(CO)O3)c2nnn1Cc1ccccc1[N+](=O)[O-] (configuration not stated)" experimental_value="3.13 µM (inactive)"
molecule="CC/C=C/C(CC)C/C(C)=C\\[C@]1(CC)C[C@H](CC)[C@H](CC(=O)O)OO1 (some centres not stated)" experimental_value="0.114 µM (active)"
molecule="Cn1c2c(c3ccccc31)CCN1C(=O)C3SC21C1C(=O)N(c2ccccc2)C(=O)C31 (configuration not stated)" experimental_value="35.3 µM (inactive)"
molecule="CC(C)(C)OC(=O)NC(Cc1ccc(OC(C)(C)C)cc1)C(=O)N[C@H]1CC[C@H](C(=O)O)C1 (some centres not stated)" experimental_value="> 100 µM (inactive)"
molecule="CC1CN1P1(N2CC2C)=NP(N2CC2C)(N2CC2C)=NP(N2CC2C)(N2CC2C)=N1 (configuration not stated)" experimental_value="> 50 µM (inactive)"
molecule="O=C1CN2C(Cl)(Cl)C2(c2ccccc2)c2cc(Cl)ccc2N1CC(F)(F)F (configuration not stated)" experimental_value="28.9 µM (inactive)"
molecule=CC(=O)O[C@H]1C[C@H]2[C@@H]([C@H](OC(C)=O)C[C@@H]3CC4(CC[C@@]32C)OOC2(CCCCC2)OO4)[C@@H]2CC[C@H]([C@H](C)CCC(N)=O)[C@@]12C experimental_value="0.0787 µM (active)"
molecule=Cc1c2ccncc2c(C)c2c1[nH]c1ccc(Oc3ccccc3)cc12 experimental_value="2.85 µM (inactive)"
molecule=C/C(=N\NC(=S)N1CCCCCC1)c1ccccn1 experimental_value="0.00392 µM (active)"
molecule=COc1ccc2ccc3oc(=O)c(C)cc3c2c1 experimental_value="> 100 µM (inactive)"
molecule=CC(=O)OI1NC(=O)c2ccccc21 experimental_value="> 100 µM (inactive)"
molecule="O=C(O)C12CCC(CC1=O)C2 (configuration not stated)" experimental_value="> 100 µM (inactive)"
molecule=O=C1CCC(c2ccccc2)(c2ccccc2)CC1 experimental_value="37.8 µM (inactive)"
molecule=O=C(O)CCSC(=O)Nc1ccc(/N=N/c2ccccc2)cc1 experimental_value="37.9 µM (inactive)"
molecule=Cc1cc2c(=Cc3ccc(N(C)C)cc3)c3ccccc3n2[n+]1C experimental_value="0.0865 µM (active)"
molecule=O=C(NC1(c2cc3ccccc3s2)CCCCC1)C1CCC1 experimental_value="> 100 µM (inactive)"
molecule=COc1cc2c(cc1OC)C(=O)/C(=C/c1cc(OC)c(OC)c(OC)c1)C2 experimental_value="> 100 µM (inactive)"
molecule=COc1ccc(/N=N/C(=N\c2ccc(Cl)cc2)c2ccc(N(CCC#N)CCC#N)cc2)cc1 experimental_value="0.834 µM (active)"
molecule="COC(=O)C(=O)C(C#N)c1cccc(Cl)c1 (configuration not stated)" experimental_value="> 100 µM (inactive)"
molecule=Cc1ccc(/C=C(\C#N)c2ccccc2)cc1 experimental_value="> 100 µM (inactive)"
molecule="CCOC(=O)C1C(=O)C(=O)N2CCc3c([nH]c4ccccc34)C12 (configuration not stated)" experimental_value="> 100 µM (inactive)"
molecule=COc1ccc(Cc2ccccc2C(=O)O)c2ccccc12 experimental_value="31.5 µM (inactive)"
molecule=CCOc1cc(-c2nc3ccccn3c2/N=C/c2cc(Br)ccc2O)ccc1O experimental_value="35.6 µM (inactive)"
molecule=O=C1C2=Cc3ccccc3CCN2c2ccc([N+](=O)[O-])cc21 experimental_value="66.8 µM (inactive)"
molecule=O=C(CCc1ccc(O)c(O)c1)c1ccc(O)c(O)c1O experimental_value="24.9 µM (inactive)"
molecule=NC(=S)Nc1nc(=S)[nH]c2[nH]ccc12 experimental_value="29.4 µM (inactive)"
